tested on: Mycobacterium tuberculosis Erdman (autoluminescent); assay: Einf, fitted maximum growth inhibition of combination (fraction); higher = stronger maximal inhibition; details: in vitro model: butyrate; time point: constant (~7 days, model-specific)
Listed molecules paired with reported Einf
observable: Einf

1) CC(C)/N=c1\cc2n(-c3ccc(Cl)cc3)c3ccccc3nc-2cc1Nc1ccc(Cl)cc1 [clofazimine] + NC(=O)c1cnccn1 [pyrazinamide]	0.922
2) NNC(=O)c1ccncc1 [isoniazid] + CO[C@H]1/C=C/O[C@@]2(C)Oc3c(C)c(O)c4c(O)c(c(/C=N/N5CCN(C)CC5)c(O)c4c3C2=O)NC(=O)/C(C)=C\C=C\[C@H](C)[C@H](O)[C@@H](C)[C@@H](O)[C@@H](C)[C@H](OC(C)=O)[C@@H]1C [rifampicin]	0.932
3) NNC(=O)c1ccncc1 [isoniazid] + CO[C@H]1/C=C/O[C@@]2(C)Oc3c(C)c(O)c4c(O)c(c(/C=N/N5CCN(C6CCCC6)CC5)c(O)c4c3C2=O)NC(=O)/C(C)=C\C=C\[C@H](C)[C@H](O)[C@@H](C)[C@@H](O)[C@@H](C)[C@H](OC(C)=O)[C@@H]1C [rifapentine]	0.903
4) NC(=O)c1cnccn1 [pyrazinamide] + CO[C@H]1/C=C/O[C@@]2(C)Oc3c(C)c(O)c4c(O)c(c(/C=N/N5CCN(C6CCCC6)CC5)c(O)c4c3C2=O)NC(=O)/C(C)=C\C=C\[C@H](C)[C@H](O)[C@@H](C)[C@@H](O)[C@@H](C)[C@H](OC(C)=O)[C@@H]1C	0.875
5) COc1nc2ccc(Br)cc2cc1[C@@H](c1ccccc1)[C@@](O)(CCN(C)C)c1cccc2ccccc12 [bedaquiline] + CC(C)/N=c1\cc2n(-c3ccc(Cl)cc3)c3ccccc3nc-2cc1Nc1ccc(Cl)cc1 [clofazimine]	0.946
6) CC[C@@H](CO)NCCN[C@@H](CC)CO [ethambutol] + COc1c(N2C[C@@H]3CCCN[C@@H]3C2)c(F)cc2c(=O)c(C(=O)O)cn(C3CC3)c12 [moxifloxacin]	0.923
7) COc1nc2ccc(Br)cc2cc1[C@@H](c1ccccc1)[C@@](O)(CCN(C)C)c1cccc2ccccc12 [bedaquiline] + CC[C@@H](CO)NCCN[C@@H](CC)CO [ethambutol]	0.948
